Assay: Water solubility at different pH values
Type: physicochemical
Conditions: pH 7.4, thermodynamic from solid, pH 7.4; read-out: Saturated solubility
READOUT TYPE: solubility (mg/mL)
I only need the number, in mg/mL, no unit after it.

Task: Supply reported solubility belonging to this compound: C[C@@H](OC[C@@]1(c2ccccc2)CC[C@]2(CCC(=O)N2)CN1C(=O)OCOP(=O)(O)O)c1cc(C(F)(F)F)cc(C(F)(F)F)c1 [compound of formula (I)]
Result: 19.8

====

Assay: Pharmacokinetic test in cynomolgus monkeys
Assay type: in vivo
Settings: cynomolgus monkey; analyte compound of formula (I) in plasma; intravenous drip about 30 min, 3.54 mg/kg compound of formula (I)
READOUT TYPE: half-life (min)
I only need the number, in min, no unit after it.

Task: Supply reported half-life belonging to this compound: C[C@@H](OC[C@@]1(c2ccccc2)CC[C@]2(CCC(=O)N2)CN1C(=O)OCOP(=O)(O)O)c1cc(C(F)(F)F)cc(C(F)(F)F)c1 [compound of formula (I)]
Result: 28.2
